# experimental.target: Histone-lysine N-methyltransferase KMT5B (Homo sapiens)
# Sequence (Q4FZB7 whole entry, the tested form may be a part): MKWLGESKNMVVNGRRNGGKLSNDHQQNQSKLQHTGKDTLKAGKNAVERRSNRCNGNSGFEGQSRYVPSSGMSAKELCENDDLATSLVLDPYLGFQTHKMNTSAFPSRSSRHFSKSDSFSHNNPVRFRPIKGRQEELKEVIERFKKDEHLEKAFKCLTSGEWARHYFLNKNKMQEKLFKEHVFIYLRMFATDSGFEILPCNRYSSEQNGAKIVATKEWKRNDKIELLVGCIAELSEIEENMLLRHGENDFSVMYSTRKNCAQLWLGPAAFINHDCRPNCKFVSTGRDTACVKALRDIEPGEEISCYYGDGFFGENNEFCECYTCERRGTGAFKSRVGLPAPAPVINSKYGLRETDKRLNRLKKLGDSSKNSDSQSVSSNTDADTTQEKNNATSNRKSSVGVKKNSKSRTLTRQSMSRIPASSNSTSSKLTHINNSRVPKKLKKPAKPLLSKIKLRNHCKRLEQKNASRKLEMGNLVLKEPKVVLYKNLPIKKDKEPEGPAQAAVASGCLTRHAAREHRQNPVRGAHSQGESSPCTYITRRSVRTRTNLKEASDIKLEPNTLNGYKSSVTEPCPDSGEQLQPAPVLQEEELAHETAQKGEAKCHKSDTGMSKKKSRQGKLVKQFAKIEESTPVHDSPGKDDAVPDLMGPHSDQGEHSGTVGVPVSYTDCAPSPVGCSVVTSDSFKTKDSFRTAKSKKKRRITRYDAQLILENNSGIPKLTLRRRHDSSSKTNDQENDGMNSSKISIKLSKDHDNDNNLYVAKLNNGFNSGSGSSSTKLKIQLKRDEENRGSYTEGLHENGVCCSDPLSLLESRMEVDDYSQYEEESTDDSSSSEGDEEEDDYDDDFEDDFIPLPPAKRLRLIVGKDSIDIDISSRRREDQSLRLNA
# assay.explanation: Inhibition of recombinant human 6His-(Tev)-G-SUV420H1 (69 to 335 residues) using Biotin-tagged H4K20me1 and [3H-SAM] as substrate incubated for 2 hrs by scintillation proximity assay
measured.parameter: IC50 (µM)

[A] Clc1cc2c(NC3CCCC3)nnc(-c3ccncc3)c2cc1Cl
[B] Clc1cc2nccc(NC3CCCC3)c2cc1Cl
I'd appreciate it if you could identify which of A and B has the greater IC50. // respond with label for picked entry
B

====

# assay.explanation: Inhibition of H4K20me2 in human LNCaP cells incubated for 48 hrs by Western blotting analysis
# Type: functional, cell-based
measured.parameter: IC50 (nM)
Write down the numeric answer in nM and omit the unit.

IC50 lookup needed for Clc1cc2c(NC3CCCC3)nnc(-c3ccncc3)c2cc1Cl , thanks.
511
